System: EKVX NSCLC
Your response should consist of one outcome taken from active, inactive

Q: What did the test return for `CCOC(=O)c1c2c(n(Cc3ccccc3)c1C)-c1nc[nH]c1C(=O)C2=O` ?
Result: inactive

Q: What did the test return for `CN(CCNc1ccc(C(=N)N)cc1)c1ccc(C(=N)N)cc1` ?
Result: inactive

Q: What did the test return for `CN1CCN(C(=O)OCc2nc3c(N4CCOCC4)nc(-c4ccccc4)nc3n2C)CC1` ?
Result: inactive

Q: What did the test return for `N#C/C(=C\c1ccc([N+](=O)[O-])cc1)n1nnc2cc(F)c(F)cc21` ?
Result: inactive

Q: What did the test return for COc1ncnn2ccc(-c3cnc4nc(C)n(Cc5nnc(C(C)F)o5)c4c3)c12 (stereo not given) ?
Result: active

====

Hi there, I'd appreciate the recorded TGI for every entry that follows.
Test system: OVCAR-4 ovarian
Assay name: NCI tumour cell line growth inhibition, 48 h

Q: May I ask what TGI has been recorded for `CC1(C)OC[C@@H]([C@H](C=O)OCc2ccccc2)O1` ?
Result: > 100 µM

Q: May I ask what TGI has been recorded for `ClCc1nnc2n1-c1ccc(Cl)cc1SC2` ?
Result: 12.6 µM

Q: May I ask what TGI has been recorded for `O=C(/C=C/c1cccnc1)c1ccccc1` ?
Result: 26.5 µM

Q: May I ask what TGI has been recorded for `O=C(NCCNc1nccc(-c2c(-c3ccc(F)cc3)nc3sccn23)n1)Nc1cccc(C(F)(F)F)c1` ?
Result: 43 µM

Q: May I ask what TGI has been recorded for Cc1ccc(S(=O)(=O)NN=C2C(C)CC(C(C)(C)C)CC2C)cc1 (stereo unspecified) ?
Result: 29.1 µM

Q: May I ask what TGI has been recorded for `COc1ccc(/C=C/C(=O)c2ccc(B(O)O)cc2)cc1O` ?
Result: 40.3 µM

====

Test system: SW-620 colon
Assay name: NCI tumour cell line growth inhibition, 48 h
Test readout: TGI

Q: May I ask what TGI has been recorded for Cc1nn(C(=O)c2ccc(Cl)cc2)c2c1C(c1ccccc1)SC(N)=N2 (stereo not given) ?
Result: > 10 µM

Q: May I ask what TGI has been recorded for `CC(C)[C@]12O[C@H]1[C@@H]1O[C@]13[C@]1(O[C@H]1C[C@H]1C4=C(CC[C@@]13C)C(=O)OC4)[C@@H]2OC(=O)OC(C)(C)C` ?
Result: > 100 µM

Q: May I ask what TGI has been recorded for `Cc1ccc(C)n1-n1c(Cc2ccc(Cl)cc2)n[nH]c1=O` ?
Result: > 100 µM

Q: May I ask what TGI has been recorded for CCCCCCCCOP(=O)(O)OP(=O)(O)OCC1OC(n2ccc(N)nc2=O)C(O)C1O (stereo not given) ?
Result: > 100 µM

Q: May I ask what TGI has been recorded for `CCOc1ccc(-n2c(=O)c3nn4c(=O)n(-c5ccc(OCC)cc5)c(=O)c4nn3c2=O)cc1` ?
Result: > 100 µM

====

Test system: RXF 393 renal
Assay name: NCI tumour cell line growth inhibition, 48 h
Hi there, I'd appreciate the recorded TGI for every entry that follows.
Value expressed in µM; do not type the unit.

Q: May I ask what TGI has been recorded for `CC[n+]1c(/C=C/c2ccc(N3CCCC3)cc2)cccc1/C=C/c1ccc(N2CCCC2)cc1` ?
Result: 1.51

Q: May I ask what TGI has been recorded for `CO[C@@H]1C[C@H]2[C@@H]3CC[C@H]([C@@H](C)COC(C)=O)[C@@]3(C)CC[C@@H]2[C@@]2(C)CC[C@H]3C[C@]312` ?
Result: 35.7

Q: May I ask what TGI has been recorded for `Cc1cc(C)c2c(=O)cc(-c3ccccc3)[nH]c2c1` ?
Result: 5.11

Q: May I ask what TGI has been recorded for `Brc1ccc(N=C/C=C(\Nc2ccc(Br)cc2)C23CC4CC(CC(C4)C2)C3)cc1` ?
Result: 29

Q: May I ask what TGI has been recorded for `C/C(=N/NC(=S)Nc1ccccc1C)c1ccccn1` ?
Result: 13.2

Q: May I ask what TGI has been recorded for `O=C(NC(=S)Nc1ccc(-c2nc3ccccc3[nH]2)cc1)c1ccc2ccccc2c1` ?
Result: 3.77

Q: May I ask what TGI has been recorded for `N[C@@H]1c2c(Br)sc(Br)c2C(=O)[C@H]1Br` ?
Result: 53.6

Q: May I ask what TGI has been recorded for `COc1ccc(-c2nnc3c4ccccc4sn23)cc1` ?
Result: 82.5

Q: May I ask what TGI has been recorded for `COc1ccc(-c2nc(Nc3ccc(F)cc3)nc(Nc3ccc4c(c3)nc(C)n4Cc3ccccc3)n2)cc1` ?
Result: 9.54

Q: May I ask what TGI has been recorded for COc1ncnn2ccc(-c3cnc4nc(C)n(Cc5nnc(C(C)F)o5)c4c3)c12 (configuration not stated) ?
Result: 0.665

Q: May I ask what TGI has been recorded for `CCOC(=O)c1ccc(N(C)Cc2cnc3nc(N)nc(N)c3n2)cc1` ?
Result: 33

Q: May I ask what TGI has been recorded for `CC(=O)Nc1ccc(S(=O)(=O)N/N=C/c2cc(I)cc([N+](=O)[O-])c2O)cc1` ?
Result: 85.2

Q: May I ask what TGI has been recorded for CC(C)(Cl)C(Br)CCC(=CCBr)CBr (mixture of isomers) ?
Result: 15.7

Q: May I ask what TGI has been recorded for CCN1CCC(O)(/C=C/c2cccc(C)c2)C(C(=O)/C=C/c2cccc(C)c2)C1 (configuration not stated) ?
Result: 3.57

Q: May I ask what TGI has been recorded for `Cc1cccc2c1NC(=O)[C@@H](NC(=O)[C@H](CCC(F)(F)F)[C@H](CCC(F)(F)F)C(N)=O)N=C2c1cccc(F)c1` ?
Result: 40.4

Q: May I ask what TGI has been recorded for `C=CC[C@H](O)[C@@](NC(=O)OCc1ccccc1)(Sc1ccc(C)cc1)C(F)(F)F` ?
Result: 53

Q: May I ask what TGI has been recorded for CC12OC(C(=O)C13CC3)C1C(=O)c3cccc(O)c3C(=O)C12 (configuration not stated) ?
Result: 9.3

Q: May I ask what TGI has been recorded for C=CC(Br)(CBr)CCC1OC1(C)C (configuration not stated) ?
Result: 21.4
